- Experiment summary: Lyotropic behaviour: flooding technique on hot stage, optical microscopy under crossed polarised light
- Format: physicochemical
- Condition notes: flooding with water; temperature as stated per example
Experimental endpoint: Lyotropic phase formed at the interface with water

Molecule: CC(C)CCCC(C)CCCC(C)CCNC(N)=O (stereo not shown)
Obs value: reverse hexagonal phase
--
Molecule: CCCCC/C=C\C/C=C\CCCCCCCCNC(N)=O [Example 11, cis, cis-octadec-9,12-dienyl urea]
Obs value: reverse hexagonal phase
--
Molecule: CC(C)CCCC(C)CCCC(C)CCCC(C)CCN(CCO)C(N)=O (stereo not shown)
Obs value: reverse hexagonal phase

====

- Experiment summary: Lyotropic behaviour: flooding technique on hot stage, optical microscopy under crossed polarised light
- Type: physicochemical
- Condition notes: flooding, heating
Mark true only when Temperature at which the lyotropic phase forms / begins to form on contact with water stays strictly below 30 °C. Values equal to the cut-off are false.

// query Temperature at which the lyotropic phase forms / begins to form on contact with water under 30 °C? Item: CCCCCCCC/C=C\CCCCCCCCNC(N)=O [Example 10, cis-octadec-9enyl urea]
// result false

// query What about CC(C)CCCC(C)CCCC(C)CCCC(C)CCNC(N)=O (stereo not shown) [Example 3, 3,7,11,15Tetramethyl-hexadecyl urea] ?
// result true

// query What about CC(C)CCCC(C)CCCC(C)CCCC(C)CCN(CCO)C(N)=O (stereo not shown) [Example 1] ?
// result true

// query What about CCCCC/C=C\C/C=C\CCCCCCCCNC(N)=O [Example 11, cis, cis-octadec-9,12-dienyl urea] ?
// result false

// query What about CCCCCCCC/C=C\CCCCCCCCNC(=O)NC(N)=O [Example 9, cis-octadec-9-enyl biuret] ?
// result false
